Hi! I'm sharing some Ki results obtained with UniProtKB P35372.
Sequence (P35372 whole entry): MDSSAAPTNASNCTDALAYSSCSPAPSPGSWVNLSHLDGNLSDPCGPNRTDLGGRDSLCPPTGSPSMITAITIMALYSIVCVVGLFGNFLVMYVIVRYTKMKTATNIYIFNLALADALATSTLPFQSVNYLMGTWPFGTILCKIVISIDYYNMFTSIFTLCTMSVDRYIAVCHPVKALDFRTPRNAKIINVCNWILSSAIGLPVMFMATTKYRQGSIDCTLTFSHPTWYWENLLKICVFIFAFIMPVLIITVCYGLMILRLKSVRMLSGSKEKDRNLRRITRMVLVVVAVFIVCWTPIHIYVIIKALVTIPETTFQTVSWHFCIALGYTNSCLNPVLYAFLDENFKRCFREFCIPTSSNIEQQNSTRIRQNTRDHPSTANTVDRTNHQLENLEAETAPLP

Data request: GET Ki | system: UniProtKB P35372 | item: COC(=O)[C@@H]1C[C@H](OC(=O)CCC(=O)O)C(=O)[C@H]2[C@@]1(C)CC[C@H]1C(=O)O[C@H](c3ccoc3)C[C@]21C
Data returned: > 10 µM

Data request: Quote Ki with test system UniProtKB P35372 for COC(=O)CCC(=O)O[C@H]1C[C@@H](C(=O)OC)[C@]2(C)CC[C@H]3C(=O)O[C@H](c4ccoc4)C[C@]3(C)[C@H]2C1=O
Data returned: > 10 µM

Data request: State, for UniProtKB P35372, measured Ki of the molecule listed here: COC(=O)CCCCC(=O)O[C@H]1C[C@@H](C(=O)OC)[C@]2(C)CC[C@H]3C(=O)O[C@H](c4ccoc4)C[C@]3(C)[C@H]2C1=O
Data returned: > 10 µM

* * *

species on record: Homo sapiens; assay: Selectivity ratio of Ki for delta opioid receptor (unknown origin) to Ki for kappa opioid receptor (unknown origin)
In this section, each of the compounds is paired with its reported Ratio Ki.

> print(dat)
                            compound.string  outcome.measure  test.result
1  COC(=O)CCCCC(=O)O[C@H]1C[C@@H](C(=O)OC)[C@]2(C)CC[C@H]3C(=O)O[C@H](c4ccoc4)C[C@]3(C)[C@H]2C1=O         Ratio Ki         > 17
2  COC(=O)[C@@H]1C[C@H](OC(=O)/C=C\C(=O)O)C(=O)[C@H]2[C@@]1(C)CC[C@H]1C(=O)O[C@H](c3ccoc3)C[C@]21C         Ratio Ki            1
3  COC(=O)[C@@H]1C[C@H](OC(=O)CC(=O)OC(C)(C)C)C(=O)[C@H]2[C@@]1(C)CC[C@H]1C(=O)O[C@H](c3ccoc3)C[C@]21C         Ratio Ki         > 67
4  COC(=O)CCC(=O)O[C@H]1C[C@@H](C(=O)OC)[C@]2(C)CC[C@H]3C(=O)O[C@H](c4ccoc4)C[C@]3(C)[C@H]2C1=O         Ratio Ki        > 277
5  COC(=O)/C=C/C(=O)O[C@H]1C[C@@H](C(=O)OC)[C@]2(C)CC[C@H]3C(=O)O[C@H](c4ccoc4)C[C@]3(C)[C@H]2C1=O         Ratio Ki        > 256

Here is the next item to consider.
Data request: Please list Ratio Ki recorded for the compound COC(=O)CC(=O)O[C@H]1C[C@@H](C(=O)OC)[C@]2(C)CC[C@H]3C(=O)O[C@H](c4ccoc4)C[C@]3(C)[C@H]2C1=O
Data returned: 2160

* * *

target: Delta-type opioid receptor (Homo sapiens); assay: Displacement of [3H]DADLE from delta opioid receptor (unknown origin)
Sequence (P41143 whole entry): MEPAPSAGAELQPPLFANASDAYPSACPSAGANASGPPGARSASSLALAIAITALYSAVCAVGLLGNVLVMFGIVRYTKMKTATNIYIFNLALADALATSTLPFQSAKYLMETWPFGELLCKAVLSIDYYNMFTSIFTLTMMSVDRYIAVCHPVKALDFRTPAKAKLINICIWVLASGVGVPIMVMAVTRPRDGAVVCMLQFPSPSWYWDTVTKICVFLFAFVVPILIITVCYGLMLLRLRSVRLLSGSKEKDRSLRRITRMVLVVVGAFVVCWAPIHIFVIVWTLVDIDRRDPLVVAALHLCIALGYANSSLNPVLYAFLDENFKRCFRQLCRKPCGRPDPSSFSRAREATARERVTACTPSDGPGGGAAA
Each record here notes measured Ki.

Compound	Outcome measure	Test result
COC(=O)CCCCC(=O)O[C@H]1C[C@@H](C(=O)OC)[C@]2(C)CC[C@H]3C(=O)O[C@H](c4ccoc4)C[C@]3(C)[C@H]2C1=O	Ki	> 10 µM
CCOC(=O)CC(=O)O[C@H]1C[C@@H](C(=O)OC)[C@]2(C)CC[C@H]3C(=O)O[C@H](c4ccoc4)C[C@]3(C)[C@H]2C1=O [ETHYLSALVINORINB-2-O-MALONATE]	Ki	> 10 µM

Now for a further compound.
Data request: Quickly give me recorded Ki for COC(=O)CCC(=O)O[C@H]1C[C@@H](C(=O)OC)[C@]2(C)CC[C@H]3C(=O)O[C@H](c4ccoc4)C[C@]3(C)[C@H]2C1=O
Data returned: > 10 µM
